Can you tell me logP (Method L0) [a] for the items I'm about to list?
Assay: log P by HPLC on reversed phase columns (Method L0; [a] acidic, [b] neutral range)
Conditions: HPLC on reversed phase columns, Method L0, [a] acidic range
Numbers only.

* Cc1c(C(=O)N[C@H]2CCCc3ccccc32)cnc2c(-c3cccc(Cl)c3)cnn12 | 4.33
* Cc1c(C(=O)N[C@H]2CCc3ccccc32)cnc2c(-c3cccc(C(F)(F)F)c3)c(C(F)(F)F)nn12 | 4.77
* Cc1ccc2c(c1)[C@@H](NC(=O)c1cnc3c(-c4c(F)cccc4F)c(C)nn3c1C(C)C)CCC2 | 5.09

Would you kindly look at the next entry?
Prompt: Which logP (Method L0) [a] value belongs to Cc1ccc2c(c1)[C@@H](NC(=O)c1cnc3c(-c4ccccc4F)c(C)nn3c1C(C)C)CCC2 ?
Completion: 5.16
